System: Anopheles funestus FANG (susceptible)
Assay: Glazed tile contact bioassay, strain FANG
Format: in vivo
Conditions: female adults, contact exposure 30 min, mortality 24 h

Molecule: CC1(C)[C@H](C(=O)O[C@H](C#N)c2cccc(Oc3ccccc3)c2)[C@@H]1C=C(Br)Br
LC50 [mg/m^2]: 0.0206

Molecule: CC1(C)C(C=C(Cl)Cl)C1C(=O)OC(C#N)c1cccc(Oc2ccccc2)c1 (stereo not shown)
LC50 [mg/m^2]: 0.0968

Molecule: CC1(C)[C@H](C=C(Cl)Cl)[C@H]1C(=O)OCc1c(F)c(F)cc(F)c1F [Transfluthrin]
LC50 [mg/m^2]: 0.023

Molecule: CC1(C)C(C=C(Cl)Cl)C1C(=O)OCc1cccc(Oc2ccccc2)c1 (stereo not shown)
LC50 [mg/m^2]: 0.543

====

Biological target: UniProt:Q25439
Sequence (Q25439 1-2105): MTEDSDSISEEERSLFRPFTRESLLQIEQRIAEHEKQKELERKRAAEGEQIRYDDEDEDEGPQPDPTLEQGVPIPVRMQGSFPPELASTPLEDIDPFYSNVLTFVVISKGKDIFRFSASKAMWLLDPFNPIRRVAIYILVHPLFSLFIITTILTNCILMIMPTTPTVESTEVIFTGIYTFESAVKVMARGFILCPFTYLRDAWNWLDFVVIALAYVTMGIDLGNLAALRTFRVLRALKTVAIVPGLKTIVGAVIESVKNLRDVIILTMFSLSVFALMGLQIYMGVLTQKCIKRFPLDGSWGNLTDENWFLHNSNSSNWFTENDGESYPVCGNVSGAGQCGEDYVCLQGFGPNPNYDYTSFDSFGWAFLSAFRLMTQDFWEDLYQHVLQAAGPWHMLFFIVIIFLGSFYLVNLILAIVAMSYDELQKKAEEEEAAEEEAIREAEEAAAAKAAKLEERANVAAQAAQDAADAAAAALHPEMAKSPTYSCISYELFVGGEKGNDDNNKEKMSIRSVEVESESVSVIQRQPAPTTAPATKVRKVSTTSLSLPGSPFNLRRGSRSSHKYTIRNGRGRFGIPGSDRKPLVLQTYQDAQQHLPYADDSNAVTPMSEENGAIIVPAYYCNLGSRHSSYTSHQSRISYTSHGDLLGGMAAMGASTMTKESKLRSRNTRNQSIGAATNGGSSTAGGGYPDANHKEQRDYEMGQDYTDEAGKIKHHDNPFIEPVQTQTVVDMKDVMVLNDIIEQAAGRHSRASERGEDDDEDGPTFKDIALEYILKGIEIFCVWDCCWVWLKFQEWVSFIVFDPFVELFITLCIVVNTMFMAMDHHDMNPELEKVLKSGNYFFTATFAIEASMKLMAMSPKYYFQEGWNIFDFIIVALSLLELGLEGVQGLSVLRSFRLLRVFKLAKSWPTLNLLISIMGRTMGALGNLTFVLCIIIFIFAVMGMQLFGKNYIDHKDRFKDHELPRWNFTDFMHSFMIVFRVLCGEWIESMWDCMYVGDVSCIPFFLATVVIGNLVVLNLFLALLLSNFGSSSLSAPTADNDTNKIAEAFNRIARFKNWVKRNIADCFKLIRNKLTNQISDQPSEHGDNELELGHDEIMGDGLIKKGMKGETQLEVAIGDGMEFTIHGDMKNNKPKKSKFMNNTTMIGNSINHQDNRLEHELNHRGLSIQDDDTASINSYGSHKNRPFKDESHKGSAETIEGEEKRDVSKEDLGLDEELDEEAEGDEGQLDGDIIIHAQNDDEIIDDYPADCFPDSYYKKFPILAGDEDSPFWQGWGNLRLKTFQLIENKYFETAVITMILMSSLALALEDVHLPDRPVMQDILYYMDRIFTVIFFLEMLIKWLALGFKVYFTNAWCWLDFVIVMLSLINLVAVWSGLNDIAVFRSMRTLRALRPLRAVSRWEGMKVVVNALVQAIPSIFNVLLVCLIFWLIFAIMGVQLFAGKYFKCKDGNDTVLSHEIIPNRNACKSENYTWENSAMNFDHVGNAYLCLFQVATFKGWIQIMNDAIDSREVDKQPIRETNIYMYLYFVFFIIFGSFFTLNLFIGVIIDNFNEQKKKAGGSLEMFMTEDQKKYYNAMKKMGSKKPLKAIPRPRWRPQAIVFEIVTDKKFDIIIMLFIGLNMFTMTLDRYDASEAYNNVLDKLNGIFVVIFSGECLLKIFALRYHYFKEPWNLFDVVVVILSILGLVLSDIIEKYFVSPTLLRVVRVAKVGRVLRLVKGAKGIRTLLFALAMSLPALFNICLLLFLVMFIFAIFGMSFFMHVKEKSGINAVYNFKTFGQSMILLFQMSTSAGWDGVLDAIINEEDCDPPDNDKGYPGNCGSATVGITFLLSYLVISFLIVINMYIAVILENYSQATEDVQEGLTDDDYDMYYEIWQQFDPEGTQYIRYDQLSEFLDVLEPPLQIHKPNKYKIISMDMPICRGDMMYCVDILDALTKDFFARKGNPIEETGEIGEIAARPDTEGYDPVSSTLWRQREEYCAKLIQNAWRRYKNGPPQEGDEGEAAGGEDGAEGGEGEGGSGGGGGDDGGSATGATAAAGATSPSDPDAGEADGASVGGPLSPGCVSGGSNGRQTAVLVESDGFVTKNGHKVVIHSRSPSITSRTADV
Assay: Fluorescence-based membrane potential cation influx assay
Conditions: EC50, HEK293-VGSC cells, membrane potential fluorescence
pEC50: −log10 of the molar value.

Compound: CC1(C)C(C=C(Cl)Cl)C1C(=O)OC(C#N)c1cccc(Oc2ccccc2)c1 (centres unmarked)
pEC50: 7.41
//
Compound: CC1(C)C(C=C(Cl)Cl)C1C(=O)OCc1cccc(Oc2ccccc2)c1 (centres unmarked)
pEC50: 6.14

====

Test system: Anopheles funestus FUMOZ-R (resistant)
Assay: Glazed tile contact bioassay, strain FUMOZ-R
Assay type: in vivo
Conditions: female adults, contact exposure 30 min, mortality 24 h
Catalogue of LC50 values
Value Kind: LC50 (mg/m^2)

Compound: CC1(C)[C@H](C(=O)O[C@H](C#N)c2cccc(Oc3ccccc3)c2)[C@@H]1C=C(Br)Br
Value Kind: LC50
Result Units: mg/m^2
Value Reported: 4.61
//
Compound: CC1(C)C(C=C(Cl)Cl)C1C(=O)OCc1cccc(Oc2ccccc2)c1 (stereo not shown)
Value Kind: LC50
Result Units: mg/m^2
Value Reported: 4.21
//
Compound: CC1(C)C(C=C(Cl)Cl)C1C(=O)OC(C#N)c1cccc(Oc2ccccc2)c1 (stereo not shown)
Value Kind: LC50
Result Units: mg/m^2
Value Reported: 7.54
//
Compound: CC1(C)[C@H](C=C(Cl)Cl)[C@H]1C(=O)OCc1c(F)c(F)cc(F)c1F [Transfluthrin]
Value Kind: LC50
Result Units: mg/m^2
Value Reported: 0.0576
